Below, each entry is listed alongside its reported IC50.
Molecular target: AHR (Homo sapiens)
Construct: U87 MG glioblastoma cells (ATCC #HTB-14) endogenously expressing AHR; endogenous in cells; host or cells: U87 MG glioblastoma cells (ATCC #HTB-14)
Sequence (P35869 11-848): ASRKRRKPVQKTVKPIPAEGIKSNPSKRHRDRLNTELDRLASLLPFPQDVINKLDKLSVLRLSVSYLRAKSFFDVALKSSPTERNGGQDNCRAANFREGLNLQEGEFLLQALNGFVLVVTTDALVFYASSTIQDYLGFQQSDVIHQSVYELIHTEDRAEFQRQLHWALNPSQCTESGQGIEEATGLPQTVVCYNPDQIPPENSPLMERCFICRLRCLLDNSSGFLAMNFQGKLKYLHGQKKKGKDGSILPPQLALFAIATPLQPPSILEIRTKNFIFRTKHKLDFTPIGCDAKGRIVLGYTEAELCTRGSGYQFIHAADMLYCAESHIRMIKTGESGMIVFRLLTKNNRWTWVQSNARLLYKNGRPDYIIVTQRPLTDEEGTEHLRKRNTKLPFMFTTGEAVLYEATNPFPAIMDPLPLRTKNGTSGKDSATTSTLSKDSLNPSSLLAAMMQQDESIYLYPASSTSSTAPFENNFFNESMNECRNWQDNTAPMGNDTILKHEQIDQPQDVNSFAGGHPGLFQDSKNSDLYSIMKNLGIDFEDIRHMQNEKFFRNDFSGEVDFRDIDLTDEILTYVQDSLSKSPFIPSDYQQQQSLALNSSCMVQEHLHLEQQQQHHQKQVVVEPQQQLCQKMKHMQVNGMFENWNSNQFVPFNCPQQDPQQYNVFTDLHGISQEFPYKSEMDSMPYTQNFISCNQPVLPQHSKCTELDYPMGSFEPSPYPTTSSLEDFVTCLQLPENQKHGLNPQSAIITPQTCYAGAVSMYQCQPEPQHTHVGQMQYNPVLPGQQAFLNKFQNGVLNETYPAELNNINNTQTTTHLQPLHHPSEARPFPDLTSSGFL
Experiment: In vitro assay 1: antagonism in human cell line (AHR transactivation, firefly luciferase reporter, kynurenic acid prestimulated)
Assay type: cell-based
Details: AHR Antagonism Human IC50 [M]
// units = M; emit number, no label

Solved entries:
- Compound: "O=C1NCCCC[C@H]1Nc1nc2ccccc2c2nc(-c3ccccc3F)nn12"
  Assay system: "AHR (Homo sapiens)"
  Unit annotation: "M"
  IC50: "2.01e-09"
- Compound: "CCC[C@@H](Nc1nc2ccccc2c2nc(-c3ccccc3OC(F)(F)F)nn12)C(=O)NC"
  Assay system: "AHR (Homo sapiens)"
  Unit annotation: "M"
  IC50: "5.89e-08"
- Compound: "O=C1NCCCC[C@H]1Nc1nc2ccccc2c2nc(-c3ccccc3OC(F)(F)F)nn12"
  Assay system: "AHR (Homo sapiens)"
  Unit annotation: "M"
  IC50: "2.98e-09"
- Compound: "CC[C@@H](Nc1nc2c(Br)cccc2c2nc(-c3ccc(Cl)cc3OC(F)(F)F)nn12)C(N)=O"
  Assay system: "AHR (Homo sapiens)"
  Unit annotation: "M"
  IC50: "3.36e-09"
- Compound: "CCn1cc(-c2nc3c4ccccc4nc(N[C@@H]4CCCCNC4=O)n3n2)c(C)n1"
  Assay system: "AHR (Homo sapiens)"
  Unit annotation: "M"
  IC50: "1.36e-09"
- Compound: "Cc1ccc2c(c1)nc(N[C@@H]1CCCCNC1=O)n1nc(-c3cnn(C)c3)nc21"
  Assay system: "AHR (Homo sapiens)"
  Unit annotation: "M"
  IC50: "7.53e-07"

Field: next compound
Ask: Please tell me: IC50 of COc1cccc(-c2nc3c4c(C)cccc4nc(NC4CCNC4=O)n3n2)c1 (single isomer, unassigned) [Example 190] , system AHR (Homo sapiens)?
Result: 1.54e-07
